Provenance of the data: patent US20260242478A1

# Assayed Target: T1, Anti-CD28 Fab (SEQ ID NOs: 696, 697)
# T1 construct: Used biotinylated and captured on neutravidin coated plates in the phage ELISA
# T1 sequence (VH, as listed by the source, chain 1 of 2): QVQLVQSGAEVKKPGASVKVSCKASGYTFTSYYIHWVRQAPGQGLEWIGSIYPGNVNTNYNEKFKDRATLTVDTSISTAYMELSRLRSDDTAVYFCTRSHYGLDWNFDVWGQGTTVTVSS
# T1 sequence (VL, as listed by the source, chain 2 of 2): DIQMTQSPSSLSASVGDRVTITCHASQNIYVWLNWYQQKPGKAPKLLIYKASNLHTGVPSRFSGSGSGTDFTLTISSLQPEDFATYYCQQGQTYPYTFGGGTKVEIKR
# Test: phage ELISA; Fab on plate pre-incubated with CD28 antigen as competitor, anti-M13 HRP detection
Where no end group is shown, it is not given here.
Readout Label: Phage binding ELISA, Anti-CD28 Fab signal in the presence of CD28
Answers are plain numbers.

binder="YCEGHSSEYMVKCL (cysteine pairing not given here; also: displayed on phage by fusion to pIII, linker and pIII sequence not given here, Peptide-87 library clone on clonal phage (crude supernatant); not shown: fused to the pIII filament protein of the bacteriophage) [Phage-1273]" assay_value=0.06

Please examine the following record next.
Name the reported Phage binding ELISA, Anti-CD28 Fab signal in the presence of CD28 value associated with the binder YCDGHLPRFMVKCL (cysteine pairing not given here; also: fused to phage pIII protein, pIII and linker sequence not given here, Peptide-87 library clone on clonal phage (crude supernatant); not shown: fused to the pIII filament protein of the bacteriophage) [Phage-1286]
0.07
